MEASUREMENT TARGET: T1, MUC1 on MUC1+ human cancer cell lines and tumor tissue (abnormal, e.g. hypoglycosylated, tumor MUC1) (human, UniProt P15941 24-1255)
T1 construct: the MUC1 of each cell line or tissue (number of repeats, glycoform) is not specified; The cell line or tissue is named under assay; also called MUC1 on HPAF, MCF-7, BT-20, SKBR-3, PANC-1, MS+MUC1 cells; MUC1 on colon and pancreatic tumor samples
EXPERIMENT: flow cytometry, SKBR-3 cells
Listed here are binders together with their documented percentage of APC+ stained cells.
Give the value in % but do not write % after it.

Below are worked cases with known answers.
BINDER	UNIT ABBREVIATION	percentage of APC+ stained cells
M21 (antibody, human IgG1, kappa, V domains shown, Human IgG) VH: EVQLVESGGGLVQPGGSLRLSCAASGFTVSSNYMSWVRQAPGKGLEWVSVIYSGGSTYYADSVKGRFTISRDNSKNTLYLQMNSLRAEDTAVYYCARDQEHYFDGSGYYVDYWGQGTLVTVSS VL: DVVMTQSPLSLPVTLGQPASISCRSSQSLVYSDGNTYLNWFQQRPGQSPRRLIYQVSNRDSGVPDRFSGSGSGTDFTLKIGRVEAEDVGVYFCMQGTHWPWTFGQGTKVEIKR	%	0.99
M20 (antibody, human IgG1, kappa, V domains shown, Human IgG) VH: EVQLVESGGGLVQPGGSLRLSCAASGFTFSSYWMHWVRQAPGKGLVWVSHINSDGSSTSYADSVKGRFTISRDNAKNTLYLQMNSLRAEDTAVYYCARELADWGQGTLVTVSS VL: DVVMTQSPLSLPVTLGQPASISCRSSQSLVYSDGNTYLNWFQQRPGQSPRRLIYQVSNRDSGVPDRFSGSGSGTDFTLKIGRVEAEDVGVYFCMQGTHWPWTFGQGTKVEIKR	%	1.91
M7 (antibody, human IgG1, kappa, V domains shown, Human IgG) VH: EVQLVESGGGLVQPGGSLRLSCAASGFTVSSNYMSWVRQAPGKGLEWVSVIYSGGSTYYADSVKGRFTISRDNSKNTLYLQMNSLRAEDTAVYYCARGSTNTYYYDSSGHPWGQGTMVTVSS VL: DIVMTQSPLSLPATPGEPASISCRSSQSLLHSNGYTYLDWYLQKPGQSPQVLIYLASNRASGVPDRFSGSGSGTNFTLKISRVEAEDVGLFYCMQALQTPQTFGQGTKLEIKR	%	1.65
M22 (antibody, human IgG1, kappa, V domains shown, Human IgG) VH: EVQLVESGGGLVQPGGSLRLSCAASGFTVSSNYMSWVRQAPGKGLEWVSVIYSGGTTYYADSVKGRFTISRHNSKNTLYLQMNSLRAEDTAVYYCARDHDPDYGGYYMDVWGKGTTVTVSS VL: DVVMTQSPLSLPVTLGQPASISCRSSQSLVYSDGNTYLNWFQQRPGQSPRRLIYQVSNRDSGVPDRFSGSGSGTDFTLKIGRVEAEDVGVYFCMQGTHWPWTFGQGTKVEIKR	%	1.34

# ---- query binder ----
Exercise: I'd like to know its percentage of APC+ stained cells. The binder in question is M3 (antibody, human IgG1, lambda, V domains shown, Human IgG) VH: QLQLQESGPGLVKPSETLSLTCTVSGGSISSSSYYWGWIRQPPGKGLEWIGSIYYSGSTHYNPSLKSRVTISVDTSKNQFSLKLRSVTAADTAVYYCARGVVEVRGNHYYYYYMDVWGKGTTVTVSS VL: QSVLTQPPSVSGAPGQRVTISCTGSSSNIGAGYDVHWYQQLPGTAPKLLIYGNSYRPSGVPDRFSGSKSGTSASLAITGLQAEDEADYYCQSYDSSLSGSGVFGGGTKLTVLG
Solution: 5.71
